Test system: GD4K-βNA
protocol_notes: EP activity and kinetic study with specific substrate GD4K-βNA
Type: biochemical
assay_setup: substrate GD4K-βna
Below, each entry is listed with its recorded kcat.
Write the answer as a number in s⁻¹, unit excluded.

E173A: EP-1 with E173A mutation, SEQ ID NO: 4 (protein, Oryzias latipes) VVGGVNAEKGAWPWMVSLHWRGRHGCGASLIGRDWLLTAAHCVYGKNTHLQYWSAVLGLHAQSSMNSQEVQIRQVDRIIINKNYNRRTKEADIAMMHLQQPVNFTEWVLPVCLASEDQHFPAGRRCFIAGWGRDAEGGSLPDILQEAEVPLVDQDACQRLLPEYTFTSSMLCAGYPEGGVDSCQGDSGGPLMCLEDARWTLIGVTSFGVGCGRPERPGAYARVSAFTSWIAETRRSSFSDLD = 5.33
Bovine (Nvg): bovine EP protease available from Novagen (protein) IVGGSDSREGAWPWVVALYFDDQQVCGASLVSRDWLVSAAHCVYGRNMEPSKWKAVLGLHMASNLTSPQIETRLIDQIVINPHYNKRRKNNDIAMMHLEMKVNYTDYIQPICLPEENQVFPPGRICSIAGWGALIYQGSTADVLQEADVPLLSNEKCQQQMPEYNITENMVCAGYEAGGVDSCQGDSGGPLMCQENNRWLLAGVTSFGYQCALPNRPGVYARVPRFTEWIQSFLH = 12.8

Query molecule follows.
May I ask what kcat has been recorded for Porcine: active recombinant enzyme of the porcine EP serine protease domain (Ile800 to His1034) (protein) IVGGNDSREGAWPWVVALYYNGQLLCGASLVSRDWLVSAAHCVYGRNLEPSKWKAILGLHMTSNLTSPQIVTRLIDEIVINPHYNRRRKDSDIAMMHLEFKVNYTDYIQPICLPEENQVFPPGRICSIAGWGKVIYQGSPADILQEADVPLLSNEKCQQQMPEYNITENMMCAGYEEGGIDSCQGDSGGPLMCLENNRWLLAGVTSFGYQCALPNRPGVYARVPKFTEWIQSFLH ? 8.83

# credit: patent US8013137B2
